# measuredTarget: T1, human GIP receptor (human, UniProt P48546 22-466)
# T1 sequence (looked up): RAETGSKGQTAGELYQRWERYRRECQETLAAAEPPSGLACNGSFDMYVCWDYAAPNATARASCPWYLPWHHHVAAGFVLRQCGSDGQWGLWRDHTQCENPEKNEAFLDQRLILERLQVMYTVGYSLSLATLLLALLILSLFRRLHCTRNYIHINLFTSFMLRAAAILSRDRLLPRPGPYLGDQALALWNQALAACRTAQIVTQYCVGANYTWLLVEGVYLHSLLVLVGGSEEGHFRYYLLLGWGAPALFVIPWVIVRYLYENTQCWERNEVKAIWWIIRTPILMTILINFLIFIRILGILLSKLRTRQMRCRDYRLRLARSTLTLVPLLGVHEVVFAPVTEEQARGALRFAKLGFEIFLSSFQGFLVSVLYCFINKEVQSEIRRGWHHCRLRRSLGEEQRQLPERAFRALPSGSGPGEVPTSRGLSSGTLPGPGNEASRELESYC
# testProtocol: cell-based or functional assay
Bridges are numbered along the chain shown (N, C = ends). Where no end group is shown, it is not given here. [ ]: non-standard residue; d: D form. The star is where a group is joined. Acetyl(2-(4-imidazolyl)) = O=C(Cc1c[nH]cn1)*; Aib = CC(C)(N)C(=O)O
Measured In vitro activity (%) vs. GIP, cAMP EC50 accompanies every entry in the list below.

binder: Y[Aib]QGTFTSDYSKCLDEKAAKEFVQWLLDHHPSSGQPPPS (bridge 16-20; ends not checked) [triple agonist of SEQ ID NO: 68]
In vitro activity (%) vs. GIP, cAMP EC50: 107%

binder: H[Aib]QGTFTSDVSKYLDGQAAKEFVAWLLKGC (ends and bridges not checked) [triple agonist of SEQ ID NO: 7]
In vitro activity (%) vs. GIP, cAMP EC50: < 0.1%

binder: {Acetyl(2-(4-imidazolyl))}-[Aib]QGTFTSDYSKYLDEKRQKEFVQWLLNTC (bridge 15-19) [triple agonist of SEQ ID NO: 81]
In vitro activity (%) vs. GIP, cAMP EC50: < 0.1%
